System: COLO 205 colon
Protocol notes: NCI tumour cell line growth inhibition, 48 h
Endpoint name: GI50

Compound: C[C@@H](N)COc1ccc(-c2cnc3ccc(N[C@H](C)c4cccc(F)c4)nn23)cc1
Result: 1100 nM
//
Compound: CCCCCCCCCCCCCC[n+]1ccccc1
Result: 614 nM
//
Compound: CN1CCN(C(=O)[C@@]2(C)CC[C@]3(C)CC[C@]4(C)C(=CC[C@@H]5[C@@]6(C)CCC(=O)NC(C)(C)[C@@H]6CC[C@]54C)[C@@H]3C2)CC1
Result: 1540 nM
//
Compound: Cc1ccccc1C1=C(c2cn(C)c3ccccc23)C(=O)NC1=O
Result: 9010 nM
//
Compound: CCC(C)(C)c1cc(O)c(C(C)(C)CC)cc1O
Result: 2420 nM
//
Compound: COC1=CC(c2ccc[nH]2)=N/C1=C\c1[nH]c(C)c(C(=O)CCC(=O)Oc2ccc3c(c2)CCC2C3CC[C@]3(C)[C@@H](O)CC[C@@H]23)c1C (some centres undefined)
Result: 5150 nM
//
Compound: CC1(C)CC(=O)C=C(/C=C/Sc2c(Cl)c(Cl)nc(Cl)c2Cl)C1
Result: 17200 nM
//
Compound: O=C(CN1CCN(Cc2ccccc2Cl)CC1)NC1CC(=O)c2c(Br)sc(Br)c21 (centres undefined)
Result: 21200 nM
//
Compound: COC(=O)c1ccc2nc(-c3cc4ccccc4n3C)n(CCCCOc3cc4c(cc3OC)C(=O)N3CCC[C@H]3C=N4)c2c1
Result: 575 nM
